# TEST: Cell-based activity under Prompt Conditions: Cell-based activity under Prompt Conditions. Rat or human NHE3-mediated Na+-dependent H+ antiport was measured using a modification of the pH sensitive dye method originally reported by Paradiso (PNAS USA. 81:7436-7440, 1984). Opossum kidney (OK) cells were obtained from the ATCC and propagated per their instructions. The rat NHE3 gene (GenBank M85300) or the human NHE3 gene (GenBank NM_004174.1) was introduced into OK cells via electroporation, and cells were seeded into 96 well plates and grown overnight. Medium was aspirated from the wells, cells were washed twice with NaCl-HEPES buffer (100 mM NaCl, 50 mM HEPES, 10 mM glucose, 5 mM KCl, 2 mM CaCl2, 1 mM MgCl2, pH 7.4), then incubated for 30 min at room temperature with NH4Cl-HEPES buffer (20 mM NH4Cl, 80 mM NaCl, 50 mM HEPES, 5 mM KCl, 2 mM CaCl2, 1 mM MgCl2, pH 7.4) containing 5 μM bis(acetoxymethyl) 3,3′-(3′,6′-bis(acetoxymethoxy)-5-((acetoxymethoxy)carbonyl)-3-oxo-3H-spiro[isobenzofuran-1,9′-xanthene]-2′,7′-diyl)dipropanoate (BCECF-AM).Cells were washed twice with Ammonium free, Na+-free HEPES (100 mM choline, 50 mM HEPES, 10 mM glucose, 5 mM KCl, 2 mM CaCl2, 1 mM MgCl2, pH 7.4) and incubated in the same buffer for 10 minutes at room temperature to lower intracellular pH. […] Initial rates were plotted as the average 2 or more replicates, and pIC50 values were estimated using GraphPad Prism.
PROPERTY NAME: IC50 (µM)
Please give a number only; it is taken to be in µM.

Ask: Quick one: IC50 of `CN(CC(=O)NCCOCCOCCNS(=O)(=O)c1ccc(O[C@H]2c3ccccc3C[C@@H]2N2CCCCC2)cc1)CC(=O)NCCOCCOCCNS(=O)(=O)c1ccc(O[C@H]2c3ccccc3C[C@@H]2N2CCCCC2)cc1` ?
Reply: 0.0355

Ask: Quick one: IC50 of `CN1Cc2c(Cl)cc(Cl)cc2[C@H](c2cccc(S(=O)(=O)NCCOCCOCCNC(=O)CCC(N)(CCC(=O)NCCOCCOCCNS(=O)(=O)c3cccc([C@@H]4CN(C)Cc5c(Cl)cc(Cl)cc54)c3)CCC(=O)NCCOCCOCCNS(=O)(=O)c3cccc([C@@H]4CN(C)Cc5c(Cl)cc(Cl)cc54)c3)c2)C1` ?
Reply: 0.0851

Ask: Quick one: IC50 of `C/C(=C\c1cc(F)c(Oc2ccc(S(=O)(=O)NCCOCCOCCOCCNC(=O)N3CCN(C(=O)NCCOCCOCCOCCNS(=O)(=O)c4ccc(Oc5c(F)cc(/C=C(\C)C(=O)N=C(N)N)cc5F)cc4)CC3)cc2)c(F)c1)C(=O)N=C(N)N` ?
Reply: 0.02

Ask: Quick one: IC50 of `C/C(=C\c1cc(F)c(Oc2ccc(S(=O)(=O)NCCOCCOCCOCCNCc3ccc(CNCCOCCOCCOCCNS(=O)(=O)c4ccc(Oc5c(F)cc(/C=C(\C)C(=O)N=C(N)N)cc5F)cc4)cc3)cc2)c(F)c1)C(=O)N=C(N)N` ?
Reply: 0.2

====

# TEST: Cell-based activity under Prompt Conditions: Cell-based activity under Prompt Conditions. Rat or human NHE3-mediated Na+-dependent H+ antiport was measured using a modification of the pH sensitive dye method originally reported by Paradiso (PNAS USA. 81:7436-7440, 1984). Opossum kidney (OK) cells were obtained from the ATCC and propagated per their instructions. The rat NHE3 gene (GenBank M85300) or the human NHE3 gene (GenBank NM_004174.1) was introduced into OK cells via electroporation, and cells were seeded into 96 well plates and grown overnight. Medium was aspirated from the wells, cells were washed twice with NaCl-HEPES buffer (100 mM NaCl, 50 mM HEPES, 10 mM glucose, 5 mM KCl, 2 mM CaCl2, 1 mM MgCl2, pH 7.4), then incubated for 30 min at room temperature with NH4Cl-HEPES buffer (20 mM NH4Cl, 80 mM NaCl, 50 mM HEPES, 5 mM KCl, 2 mM CaCl2, 1 mM MgCl2, pH 7.4) containing 5 μM bis(acetoxymethyl) 3,3′-(3′,6′-bis(acetoxymethoxy)-5-((acetoxymethoxy)carbonyl)-3-oxo-3H-spiro[isobenzofuran-1,9′-xanthene]-2′,7′-diyl)dipropanoate (BCECF-AM).Cells were washed twice with Ammonium free, Na+-free HEPES (100 mM choline, 50 mM HEPES, 10 mM glucose, 5 mM KCl, 2 mM CaCl2, 1 mM MgCl2, pH 7.4) and incubated in the same buffer for 10 minutes at room temperature to lower intracellular pH. […] Initial rates were plotted as the average 2 or more replicates, and pIC50 values were estimated using GraphPad Prism.
PROPERTY NAME: pIC50
Bear in mind: pIC50 is minus log10 of a mol/L concentration; give just that figure.

Ask: Quick one: pIC50 of `CN1Cc2c(Cl)cc(Cl)cc2[C@H](c2cccc(S(=O)(=O)NCCOCCOCCNC(=O)CN(CCOCCOCCOCCNC(=O)c3ccc(-c4ccc(Cl)cc4)cc3)CC(=O)NCCOCCOCCNS(=O)(=O)c3cccc([C@@H]4CN(C)Cc5c(Cl)cc(Cl)cc54)c3)c2)C1` ?
Reply: 5.90

Ask: Quick one: pIC50 of `CN1Cc2c(Cl)cc(Cl)cc2[C@H](c2cccc(S(=O)(=O)NCCOCCOCCOCCNC(=O)COCC(=O)NCCOCCOCCOc3cccc(-c4nc(NC(=N)N)nc5ccc(Cl)cc45)c3)c2)C1` ?
Reply: 6.85

Ask: Quick one: pIC50 of `CN1Cc2c(Cl)cc(Cl)cc2[C@H](c2cccc(S(=O)(=O)NCCOCCOCCNC(=O)NCCCC(CCCNC(=O)NCCOCCOCCNS(=O)(=O)c3cccc([C@@H]4CN(C)Cc5c(Cl)cc(Cl)cc54)c3)(CCCNC(=O)NCCOCCOCCNS(=O)(=O)c3cccc([C@@H]4CN(C)Cc5c(Cl)cc(Cl)cc54)c3)NC(=O)NC[C@H](O)[C@@H](O)[C@H](O)[C@H](O)CO)c2)C1` ?
Reply: 5.80

Entry source: ChEMBL document CHEMBL5726876
